# SYSTEM_TESTED: GABAA (α1β2γ2L) (Homo sapiens, UniProt P14867+P47870)
# Sequence (P14867 28-456): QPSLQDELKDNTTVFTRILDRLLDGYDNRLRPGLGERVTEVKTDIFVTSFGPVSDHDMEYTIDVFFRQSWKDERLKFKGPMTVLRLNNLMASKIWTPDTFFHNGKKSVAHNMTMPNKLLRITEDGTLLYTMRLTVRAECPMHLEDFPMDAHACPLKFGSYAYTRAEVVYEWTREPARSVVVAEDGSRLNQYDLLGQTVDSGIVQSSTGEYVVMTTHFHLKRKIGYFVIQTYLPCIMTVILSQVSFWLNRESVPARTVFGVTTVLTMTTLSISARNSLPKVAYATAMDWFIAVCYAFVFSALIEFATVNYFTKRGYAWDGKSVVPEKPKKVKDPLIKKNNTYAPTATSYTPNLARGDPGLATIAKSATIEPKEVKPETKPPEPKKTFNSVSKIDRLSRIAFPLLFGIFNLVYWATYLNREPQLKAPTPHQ
# Sequence (P47870 25-512 limits assumed): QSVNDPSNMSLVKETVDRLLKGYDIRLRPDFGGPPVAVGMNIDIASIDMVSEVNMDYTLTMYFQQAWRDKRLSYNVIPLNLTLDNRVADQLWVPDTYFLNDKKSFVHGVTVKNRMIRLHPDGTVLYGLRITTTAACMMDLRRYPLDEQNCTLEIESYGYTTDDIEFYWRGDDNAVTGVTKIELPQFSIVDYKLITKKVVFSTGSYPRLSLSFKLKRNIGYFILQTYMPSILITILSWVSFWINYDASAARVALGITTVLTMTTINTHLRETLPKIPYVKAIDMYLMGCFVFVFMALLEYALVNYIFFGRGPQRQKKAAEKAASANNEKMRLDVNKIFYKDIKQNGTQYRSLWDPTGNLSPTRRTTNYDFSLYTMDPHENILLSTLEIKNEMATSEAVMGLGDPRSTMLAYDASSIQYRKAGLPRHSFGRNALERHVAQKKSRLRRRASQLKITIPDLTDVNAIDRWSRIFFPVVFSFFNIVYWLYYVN
# Sequence (P18507 40-475 partner): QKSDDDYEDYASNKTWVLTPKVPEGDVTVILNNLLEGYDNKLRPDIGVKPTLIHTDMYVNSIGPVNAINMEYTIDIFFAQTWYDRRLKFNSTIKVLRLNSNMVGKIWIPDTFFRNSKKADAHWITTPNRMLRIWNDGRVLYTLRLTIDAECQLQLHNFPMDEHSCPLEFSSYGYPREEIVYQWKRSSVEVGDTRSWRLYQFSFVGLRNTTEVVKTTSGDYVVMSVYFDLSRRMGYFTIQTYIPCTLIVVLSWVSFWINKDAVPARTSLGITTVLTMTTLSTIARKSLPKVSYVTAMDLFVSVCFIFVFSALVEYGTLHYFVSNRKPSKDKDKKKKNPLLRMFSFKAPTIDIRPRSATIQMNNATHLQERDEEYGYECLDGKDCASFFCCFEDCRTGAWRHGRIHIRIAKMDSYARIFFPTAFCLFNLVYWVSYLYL
# PROCEDURE_DETAILS: Two-electrode voltage clamp on GABAA receptors expressed in Xenopus oocytes
pIC50: −log10 of the molar value.
RECORDED_METRIC: pIC50

// below: answered compounds
>>> df
                             compound  recorded_metric  value_reported
0   CCCCP(=O)(O)C1=CCC(N)C1 (racemic)            pIC50          < 3.52
1     CCP(=O)(O)C1=CCC(N)C1 (racemic)            pIC50          < 3.22
2  CC(C)P(=O)(O)C1=CCC(N)C1 (racemic)            pIC50          < 3.22

GET pIC50 | system: GABAA (α1β2γ2L) (Homo sapiens, UniProt P14867+P47870) | item: CP(=O)(O)C1=CCC(N)C1 (racemic) < 3.52
